assay target: T1, GDF15 mutant W228R (wrist region), albumin fusion (human, UniProt Q99988 195-308)
T1 construct: not shown: albumin fusion partner
T1 chain: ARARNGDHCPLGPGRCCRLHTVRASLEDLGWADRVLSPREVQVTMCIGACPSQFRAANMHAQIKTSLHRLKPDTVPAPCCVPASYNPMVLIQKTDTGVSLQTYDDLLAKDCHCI
assay details: direct ELISA on coated albumin-fusion GDF15 variant
property: binding result

[[record]]
binder = "ABGDF15-A (antibody, human IgG1, kappa, V domains shown, captured through anti-human Fc in the Biacore assay) VH: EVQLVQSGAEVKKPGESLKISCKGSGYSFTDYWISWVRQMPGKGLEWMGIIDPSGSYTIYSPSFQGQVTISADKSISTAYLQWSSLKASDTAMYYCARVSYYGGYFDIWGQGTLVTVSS VL: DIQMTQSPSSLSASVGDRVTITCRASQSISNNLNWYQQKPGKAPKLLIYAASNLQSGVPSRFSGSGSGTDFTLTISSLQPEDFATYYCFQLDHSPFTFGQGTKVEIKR"
value_observed = "binds"

[[record]]
binder = "ABGDF15-B (antibody, human IgG1, lambda, V domains shown, captured through anti-human Fc in the Biacore assay) VH: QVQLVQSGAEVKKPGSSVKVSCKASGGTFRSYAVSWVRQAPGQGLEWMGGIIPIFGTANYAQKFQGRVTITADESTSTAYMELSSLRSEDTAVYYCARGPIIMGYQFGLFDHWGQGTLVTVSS VL: SYELTQPLSVSVALGQTARITCSGDNIGSHIVSWYQQKPGQAPVLVIYDKSNRPSGIPERFSGSNSGNTATLTISRAQAGDEADYYCQTWDSIGSVVFGGGTKLTVLG"
value_observed = "binds"

[[record]]
binder = "ABGDF15-C (antibody, human IgG1, lambda, V domains shown, captured through anti-human Fc in the Biacore assay) VH: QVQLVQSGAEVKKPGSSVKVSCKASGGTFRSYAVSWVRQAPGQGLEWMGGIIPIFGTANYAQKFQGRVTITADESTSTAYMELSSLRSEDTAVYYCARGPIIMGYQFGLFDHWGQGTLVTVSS VL: SYELTQPPSVSVSPGQTASITCSGDNIGSHIVSWYQQKPGQSPVLVIYDKSNRPSGIPERFSGSNSGNTATLTISGTQAMDEADYYCQTWDSIGSVVFGGGTKLTVLG"
value_observed = "binds"

[[record]]
binder = "ABGDF15-G (antibody, human IgG1, kappa, V domains shown, captured through anti-human Fc in the Biacore assay) VH: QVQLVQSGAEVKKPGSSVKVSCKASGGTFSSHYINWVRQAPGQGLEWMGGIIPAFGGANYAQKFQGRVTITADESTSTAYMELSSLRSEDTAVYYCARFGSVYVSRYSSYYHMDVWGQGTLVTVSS VL: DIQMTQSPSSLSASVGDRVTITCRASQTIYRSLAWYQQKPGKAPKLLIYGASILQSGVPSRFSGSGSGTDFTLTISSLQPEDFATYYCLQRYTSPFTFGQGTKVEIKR"
value_observed = "binds"

